Data provenance: patent US20140315956A1

Target: gp130 extracellular domain (recombinant gp130-Fc-HA) (Homo sapiens, UniProt P40189)
Construct: purified gp130 (amino residue 18-615); made in house; host or cells: HEK293T (plasmid from Dr. John J. Krolewski)
Sequence (P40189 18-615): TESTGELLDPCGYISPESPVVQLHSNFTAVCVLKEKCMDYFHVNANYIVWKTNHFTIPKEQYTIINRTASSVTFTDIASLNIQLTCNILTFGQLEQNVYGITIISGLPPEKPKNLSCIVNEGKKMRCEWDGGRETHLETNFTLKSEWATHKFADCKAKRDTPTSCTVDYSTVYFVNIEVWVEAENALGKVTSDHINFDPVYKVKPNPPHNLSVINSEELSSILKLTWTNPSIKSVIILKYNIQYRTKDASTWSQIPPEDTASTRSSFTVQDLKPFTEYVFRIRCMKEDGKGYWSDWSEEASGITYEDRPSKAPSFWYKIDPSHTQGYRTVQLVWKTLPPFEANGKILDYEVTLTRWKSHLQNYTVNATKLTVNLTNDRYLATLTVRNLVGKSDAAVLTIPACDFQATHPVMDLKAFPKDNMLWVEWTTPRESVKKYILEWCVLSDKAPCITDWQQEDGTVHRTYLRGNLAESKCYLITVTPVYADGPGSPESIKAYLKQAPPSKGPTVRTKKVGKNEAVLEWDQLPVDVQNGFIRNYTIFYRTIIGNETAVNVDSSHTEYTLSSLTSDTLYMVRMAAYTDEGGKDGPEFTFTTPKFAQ
Test: Surface plasmon resonance direct binding to gp130-Fc-HA
Settings: gp130 extracellular domain, Biacore evaluation software 2.0; read-out: KD
Under this convention, T denotes Kd strictly below 40 µM and F denotes Kd at or above 40 µM.

INSERT INTO assay_data (compound, assigned_category) VALUES
  ('CCCCc1ccc(OC)c(Cn2cc(CCO)c3ccccc32)c1OC [MDL-8]', 'F'),
  ('CCCCC1=C(C)C(=O)[C@@](C)(CN2c3ccccc3[C@]3(O)CCO[C@H]23)C1=O [MDL-A, (+)-Madindoline A, reference compound]', 'F'),
  ('CCCCc1ccc(O)c(CN2c3ccccc3[C@]3(O)C[C@H](COC(=O)c4ccccc4)O[C@H]23)c1O (stereo in doubt) [MDL-5]', 'T'),
  ('CCCCc1ccc(O)c(Cn2cc(CCO)c3ccccc32)c1O [MDL-6]', 'F');

====

target: gp130 extracellular domain (recombinant gp130-Fc-HA) (Homo sapiens); construct: purified gp130 (amino residue 18-615); made in house; host or cells: HEK293T (plasmid from Dr. John J. Krolewski); assay: Surface plasmon resonance direct binding to gp130-Fc-HA; conditions: values in running text and figure legend; read-out: dissociation constant (KD)
pKd: −log10 of the molar value.
observed_property: pKd

INSERT INTO results (smi, test_result) VALUES
  ('CCCCc1ccc(O)c(Cn2cc(C[C@H](O)COC(=O)c3ccccc3)c3ccccc32)c1O', 4.53);

====

Target: gp130 extracellular domain (recombinant gp130-Fc-HA) (Homo sapiens, UniProt P40189)
Construct: purified gp130 (amino residue 18-615); made in house; host or cells: HEK293T (plasmid from Dr. John J. Krolewski)
Sequence (P40189 18-615): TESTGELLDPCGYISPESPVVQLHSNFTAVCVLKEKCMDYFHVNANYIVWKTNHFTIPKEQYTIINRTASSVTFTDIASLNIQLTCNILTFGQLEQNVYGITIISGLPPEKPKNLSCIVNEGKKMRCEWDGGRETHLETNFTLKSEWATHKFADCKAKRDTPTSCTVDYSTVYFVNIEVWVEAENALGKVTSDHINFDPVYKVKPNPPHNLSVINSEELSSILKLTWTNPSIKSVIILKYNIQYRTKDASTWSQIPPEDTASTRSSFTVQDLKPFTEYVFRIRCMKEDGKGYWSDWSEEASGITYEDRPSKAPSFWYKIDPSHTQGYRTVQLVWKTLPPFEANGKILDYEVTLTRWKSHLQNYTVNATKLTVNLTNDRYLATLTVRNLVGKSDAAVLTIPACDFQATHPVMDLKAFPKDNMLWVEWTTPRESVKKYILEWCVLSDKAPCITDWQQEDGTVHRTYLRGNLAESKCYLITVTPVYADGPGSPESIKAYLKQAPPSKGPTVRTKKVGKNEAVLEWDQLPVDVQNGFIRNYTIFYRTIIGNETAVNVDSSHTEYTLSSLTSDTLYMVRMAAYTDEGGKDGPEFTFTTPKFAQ
Assay: Surface plasmon resonance direct binding to gp130-Fc-HA
Details: gp130-Fc-HA on CM5 chip, BIAcore T100; read-out: SPR data (Kd μM)
Under this convention, Condition met denotes Kd strictly below 40 µM and Condition not met denotes Kd at or above 40 µM.

INSERT INTO assay_data (compound, measured_on, assigned_category) VALUES
  ('CCCCc1ccc(O)c(Cn2cc(C[C@H](O)COC(=O)c3ccccc3)c3ccccc32)c1O', 'gp130 extracellular domain (recombinant gp130-Fc-HA) (Homo sapiens, UniProt P40189)', 'Condition met'),
  ('CCCCc1ccc(OC)c(CN2c3ccccc3[C@]3(O)C[C@H](COC(=O)c4ccccc4)O[C@H]23)c1OC', 'gp130 extracellular domain (recombinant gp130-Fc-HA) (Homo sapiens, UniProt P40189)', 'Condition not met'),
  ('CCCCc1ccc(O)c(Cn2cc(CCO)c3ccccc32)c1O', 'gp130 extracellular domain (recombinant gp130-Fc-HA) (Homo sapiens, UniProt P40189)', 'Condition not met'),
  ('CCCCc1ccc(O)c(CN2c3ccccc3[C@]3(O)C[C@H](COC(=O)c4ccccc4)O[C@H]23)c1O (stereo in doubt)', 'gp130 extracellular domain (recombinant gp130-Fc-HA) (Homo sapiens, UniProt P40189)', 'Condition met'),
  ('CCCCc1ccc(OC)c(Cn2cc(CCO)c3ccccc32)c1OC', 'gp130 extracellular domain (recombinant gp130-Fc-HA) (Homo sapiens, UniProt P40189)', 'Condition not met');
